# system.name: HLA-A2.1 MHC class I molecules on T2 cells (human)
# procedure.details: T2 cells pulsed with peptide, anti-HLA-A2.1 flow cytometry; Brefeldin A treatment: 6 hr
metric: binding score (HLA-A2.1 fluorescence on T2 cells)

>  <binder>
LLFFLLFLV [CD19 peptide LLFFLLFLV (SEQ ID NO: 5)]

>  <test.value>
143

$$$$

P. SLNFIRAHT (Synthetic nonamer) [CD20 peptide SLNFIRAHT (SEQ ID NO: 9)]
Q. KLMSPKLYV (Synthetic nonamer) [CD19 peptide KLMSPKLYV (SEQ ID NO: 4)]
P or Q : whose binding score (HLA-A2.1 fluorescence on T2 cells) is greater? // respond with label for picked entry
Q
(Q: 642, P: 128)
